B1: HDV Ribozyme (parent)
chain: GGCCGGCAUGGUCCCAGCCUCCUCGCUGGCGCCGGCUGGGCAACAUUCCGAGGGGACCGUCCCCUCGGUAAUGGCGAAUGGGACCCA

- Variants of: B1
- assayInfo: self-cleavage, relative activity (ratio to wild type); higher = more cleavage; co-transcriptional
Class boundaries, taken from values of self-cleavage, are as follows: Low: < 0.2; Mid: ≥ 0.2 and < 0.7; High: ≥ 0.7

[
  {
    "mutantId": "U23G A71G",
    "assignedLabel": "High"
  }
]

Kindly state the category for this variant: C86G A87C
High

Categorize the following entry: G5C C75G
Low

Could you place C32A G34U in its proper category? Many thanks.
Low

Hi, small favor: classify G50A C64A by its self-cleavage when you get a moment.
Mid

Bin this entry: G1C C33G
Low

Assign a bin to C22A G68U
Mid

Assign a bin to G40A C84U
Mid

Exam item: assign U20G U37A to the correct category.
Low

Given G2C , name the class its self-cleavage places it in.
Low

// bin(item) where item = G31A C36A
Low

Record U9C C49G — which class?
High

Form: Item = C14U C49U ; Class = ?
High

Lab log: C15G A51G — assign self-cleavage category
Mid

Into which category would you place C62A C86A ?
High

Which category fits this record: U23C C41U
High

// return the class label for G39C C61A
Low

Given G28C G73C , name the class its self-cleavage places it in.
Low

Into which bin does this variant go? C15A A51C
High

Hey, which category is C7A U46C in, do you know?
Mid
